B1: NEK8 (parent)
chain: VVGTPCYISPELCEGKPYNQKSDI

# Variants of: B1
# protocolDescription: protein stability index of a GFP-peptide fusion (GPS, HEK-293T) (PSI 1-6); higher = more stable;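 further: lentivirally expressed fusions sorted by FACS into six bins by GFP to DsRed ratio, PSI derived from sequencing read proportions per bin multiplied by bin number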
# conditionsUsed: c terminus: a fixed tail appended

mutationName	protein stability index
S9G	2.99
P10R	2.98
G3T	3.01

Data origin, for the record: the supplement of paper PMC10567573
